- study target: von Hippel-Lindau disease tumor suppressor/Ubiquitin carboxyl-terminal hydrolase 7 (Homo sapiens, UniProt Q93009+P40337)
- Sequence (P40337 whole entry, looked up): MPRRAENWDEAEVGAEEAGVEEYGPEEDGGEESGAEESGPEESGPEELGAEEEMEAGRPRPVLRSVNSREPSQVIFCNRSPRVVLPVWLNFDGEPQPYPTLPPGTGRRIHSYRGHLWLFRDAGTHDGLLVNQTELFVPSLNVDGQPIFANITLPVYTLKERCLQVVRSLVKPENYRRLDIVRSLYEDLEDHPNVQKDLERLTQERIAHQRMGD
- Sequence (Q93009 whole entry, looked up): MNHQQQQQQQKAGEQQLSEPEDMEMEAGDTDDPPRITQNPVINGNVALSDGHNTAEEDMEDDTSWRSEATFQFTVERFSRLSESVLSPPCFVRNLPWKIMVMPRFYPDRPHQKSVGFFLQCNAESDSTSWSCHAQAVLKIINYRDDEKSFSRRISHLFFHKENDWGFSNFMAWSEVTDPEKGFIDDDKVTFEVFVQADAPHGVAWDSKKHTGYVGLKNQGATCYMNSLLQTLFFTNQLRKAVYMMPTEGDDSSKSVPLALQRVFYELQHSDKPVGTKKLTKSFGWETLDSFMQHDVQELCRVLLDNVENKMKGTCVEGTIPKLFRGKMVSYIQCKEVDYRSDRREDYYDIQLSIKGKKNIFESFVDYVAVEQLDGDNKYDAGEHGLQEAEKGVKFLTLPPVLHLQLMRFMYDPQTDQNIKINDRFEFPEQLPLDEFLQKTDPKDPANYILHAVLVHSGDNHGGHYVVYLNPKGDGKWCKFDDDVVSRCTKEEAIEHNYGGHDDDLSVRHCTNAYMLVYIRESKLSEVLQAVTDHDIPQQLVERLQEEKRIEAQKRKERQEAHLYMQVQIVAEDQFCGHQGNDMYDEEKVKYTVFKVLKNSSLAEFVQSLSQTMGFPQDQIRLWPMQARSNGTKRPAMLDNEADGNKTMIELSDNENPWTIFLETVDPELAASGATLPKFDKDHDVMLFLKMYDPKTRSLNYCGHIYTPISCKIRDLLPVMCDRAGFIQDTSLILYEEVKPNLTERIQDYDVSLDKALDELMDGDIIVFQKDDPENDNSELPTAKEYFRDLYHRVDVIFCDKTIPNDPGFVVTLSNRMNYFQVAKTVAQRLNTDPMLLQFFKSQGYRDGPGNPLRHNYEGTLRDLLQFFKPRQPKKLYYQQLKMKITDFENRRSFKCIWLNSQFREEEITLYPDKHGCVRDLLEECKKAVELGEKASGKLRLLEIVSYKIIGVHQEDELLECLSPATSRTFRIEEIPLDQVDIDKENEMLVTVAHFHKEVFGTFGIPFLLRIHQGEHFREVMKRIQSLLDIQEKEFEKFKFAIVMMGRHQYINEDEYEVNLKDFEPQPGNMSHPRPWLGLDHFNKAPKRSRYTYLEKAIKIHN
- experimental protocol: PROTACT activity at USP7/VHL in human RS4;11 cells assessed as protein degradation at 100 nM measured after 24 hrs by Western blot analysis relative to control
- Assay type: cell-based
measured property: Activity (%)

Cc1ncsc1-c1ccc([C@H](C)NC(=O)[C@@H]2C[C@@H](O)CN2C(=O)[C@@H](NC(=O)CCCCCNCc2ccc(-c3c4ncn(CC5(O)CCN(C(=O)C[C@@H](C)c6ccccc6)CC5)c(=O)c4nn3C)cc2)C(C)(C)C)cc1: 56.5
Cc1ncsc1-c1ccc([C@H](C)NC(=O)[C@@H]2C[C@@H](O)CN2C(=O)[C@@H](c2cc(N3CCC(CNCc4ccc(-c5c6ncn(CC7(O)CCN(C(=O)C[C@@H](C)c8ccccc8)CC7)c(=O)c6nn5C)cc4)CC3)no2)C(C)C)cc1: 91.3

P: Cc1ncsc1-c1ccc([C@H](C)NC(=O)[C@@H]2C[C@@H](O)CN2C(=O)[C@@H](NC(=O)CCCCCCCCCCNCc2ccc(-c3c4ncn(CC5(O)CCN(C(=O)C[C@@H](C)c6ccccc6)CC5)c(=O)c4nn3C)cc2)C(C)(C)C)cc1
Q: Cc1ncsc1-c1ccc([C@H](C)NC(=O)[C@@H]2C[C@@H](O)CN2C(=O)[C@@H](c2cc(N3CCC(N4CCC(NCc5ccc(-c6c7ncn(CC8(O)CCN(C(=O)C[C@@H](C)c9ccccc9)CC8)c(=O)c7nn6C)cc5)CC4)CC3)no2)C(C)C)cc1
Problem: Sort P and Q by Activity descending and give the first. Reply with the label of the item you choose.
Solution: P

###

- study target: von Hippel-Lindau disease tumor suppressor/Ubiquitin carboxyl-terminal hydrolase 7 (Homo sapiens, UniProt Q93009+P40337)
- experimental protocol: PROTACT activity at USP7/VHL in human RS4;11 cells assessed as protein degradation at 100 nM measured after 24 hrs by Western blot analysis relative to control
- Type: cell-based
measured property: Activity (%)

Field: example entries. Status: answers known.
Cc1ncsc1-c1ccc([C@H](C)NC(=O)[C@@H]2C[C@@H](O)CN2C(=O)[C@@H](NC(=O)CCOCCOCCNCc2ccc(-c3c4ncn(CC5(O)CCN(C(=O)C[C@@H](C)c6ccccc6)CC5)c(=O)c4nn3C)cc2)C(C)(C)C)cc1: 26.8
Cc1ncsc1-c1ccc([C@H](C)NC(=O)[C@@H]2C[C@@H](O)CN2C(=O)[C@@H](NC(=O)CCCCCCCCNCc2ccc(-c3c4ncn(CC5(O)CCN(C(=O)C[C@@H](C)c6ccccc6)CC5)c(=O)c4nn3C)cc2)C(C)(C)C)cc1: 39.1
Cc1ncsc1-c1ccc([C@H](C)NC(=O)[C@@H]2C[C@@H](O)CN2C(=O)[C@@H](NC(=O)CCCCCCCCCCCNCc2ccc(-c3c4ncn(CC5(O)CCN(C(=O)C[C@@H](C)c6ccccc6)CC5)c(=O)c4nn3C)cc2)C(C)(C)C)cc1: 75.5
Cc1ncsc1-c1ccc([C@H](C)NC(=O)[C@@H]2C[C@@H](O)CN2C(=O)[C@@H](c2cc(N3CCC(CN4CCC(CNCc5ccc(-c6c7ncn(CC8(O)CCN(C(=O)C[C@@H](C)c9ccccc9)CC8)c(=O)c7nn6C)cc5)CC4)CC3)no2)C(C)C)cc1: 73.5
Cc1ncsc1-c1ccc([C@H](C)NC(=O)[C@@H]2C[C@@H](O)CN2C(=O)[C@@H](c2cc(N3CCC(N4CC(CNCc5ccc(-c6c7ncn(CC8(O)CCN(C(=O)C[C@@H](C)c9ccccc9)CC8)c(=O)c7nn6C)cc5)C4)CC3)no2)C(C)C)cc1: 25.6

A: Cc1ncsc1-c1ccc([C@H](C)NC(=O)[C@@H]2C[C@@H](O)CN2C(=O)[C@@H](NC(=O)CCCCCCCNCc2ccc(-c3c4ncn(CC5(O)CCN(C(=O)C[C@@H](C)c6ccccc6)CC5)c(=O)c4nn3C)cc2)C(C)(C)C)cc1
B: Cc1ncsc1-c1ccc([C@H](C)NC(=O)[C@@H]2C[C@@H](O)CN2C(=O)[C@@H](c2cc(N3CCC(N4CC(NCc5ccc(-c6c7ncn(CC8(O)CCN(C(=O)C[C@@H](C)c9ccccc9)CC8)c(=O)c7nn6C)cc5)C4)CC3)no2)C(C)C)cc1
Problem: // pick larger Activity from pair: A vs B Label of pick, please.
Solution: A
